target system: hK2 (Homo sapiens)
Construct: made in house
assay explanation: Hydrolysis of hK2 substrates by hK2
Assay type: biochemical
measurement context: Table 5; hK2 1 μg/ml, 50 mM Tris, 0.1 M NaCl, pH 7.8
Rule: t for hK2 Hydrolysis Rate not less than 2000 FU/hr/m, f for anything less.

INSERT INTO assay_data (substance, target_system, group_label) VALUES
  ('SEQ ID NO: 107: hK2 substrate peptide, single letter sequence P6-P′1 (GGKHRRL; listed as Homo sapiens)', 'hK2 (Homo sapiens)', 't'),
  ('SEQ ID NO: 104: hK2 substrate peptide, single letter sequence P6-P′1 (GGKAQRL; listed as Homo sapiens)', 'hK2 (Homo sapiens)', 't'),
  ('SEQ ID NO: 118: hK2 substrate peptide, single letter sequence P6-P′1 (GGKARNL; listed as Homo sapiens)', 'hK2 (Homo sapiens)', 'f'),
  ('SEQ ID NO: 106: hK2 substrate peptide, single letter sequence P6-P′1 (GGKQRRL; listed as Homo sapiens)', 'hK2 (Homo sapiens)', 't');

Check this substance for hK2 Hydrolysis Rate at or above 2000 FU/hr/m: SEQ ID NO: 111: hK2 substrate peptide, single letter sequence P6-P′1 (GGKARRS; listed as Homo sapiens)
f

Check this substance for hK2 Hydrolysis Rate at or above 2000 FU/hr/m: SEQ ID NO: 94: hK2 substrate peptide, single letter sequence P6-P′1 (GGKSRRL; listed as Homo sapiens)
t

* * *

Exercise: for every item that follows, state its recorded hK2 Hydrolysis Rate.
target system: hK2 (Homo sapiens, UniProt P20151)
Construct: made in house
Sequence (P20151 25-261): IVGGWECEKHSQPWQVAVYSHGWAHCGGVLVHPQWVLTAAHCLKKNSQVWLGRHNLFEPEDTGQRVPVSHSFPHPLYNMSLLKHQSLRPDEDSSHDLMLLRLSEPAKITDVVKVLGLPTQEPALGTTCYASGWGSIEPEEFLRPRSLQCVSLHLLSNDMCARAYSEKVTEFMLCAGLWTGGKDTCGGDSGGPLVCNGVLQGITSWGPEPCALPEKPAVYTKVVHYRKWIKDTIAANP
assay explanation: Hydrolysis of hK2 substrates by hK2
Format: biochemical
measurement context: Table 4; hK2 1 μg/ml, 50 mM Tris, 0.1 M NaCl, pH 7.8
Numbers only, in FU/hr/m.

Solved cases below.
INSERT INTO results (substance, result_value) VALUES
  ('SEQ ID NO: 77: hK2 substrate peptide, single letter sequence P7-P′1 (GSNTERRL; listed as Homo sapiens)', 592.34),
  ('SEQ ID NO: 91: hK2 substrate peptide, single letter sequence P7-P′1 (GSYPSSHL; listed as Homo sapiens)', 24.68),
  ('SEQ ID NO: 88: hK2 substrate peptide, single letter sequence P7-P′1 (GPAHQDRL; listed as Homo sapiens)', 75.34),
  ('SEQ ID NO: 86: hK2 substrate peptide, single letter sequence P7-P′1 (GGGKAHHL; listed as Homo sapiens)', 70.15),
  ('SEQ ID NO: 87: hK2 substrate peptide, single letter sequence P7-P′1 (GSNTEKHL; listed as Homo sapiens)', 80.54);

Would you kindly look at the next entry?
Tell me measured hK2 Hydrolysis Rate for SEQ ID NO: 70: hK2 substrate peptide, single letter sequence P7-P′1 (GSKGHFRL; listed as Homo sapiens) please.
3029.27

* * *

Exercise: for every item that follows, state its recorded hK2 Hydrolysis Rate.
target system: hK2 (Homo sapiens, UniProt P20151)
Construct: made in house
assay explanation: Hydrolysis of hK2 substrates by hK2
Type: biochemical
measurement context: Table 4; hK2 1 μg/ml, 50 mM Tris, 0.1 M NaCl, pH 7.8
Numbers only, in FU/hr/m.

INSERT INTO assay_data (substance, result_value) VALUES
  ('SEQ ID NO: 80: hK2 substrate peptide, single letter sequence P7-P′1 (GSNTEKRL; listed as Homo sapiens)', 255.90),
  ('SEQ ID NO: 72: hK2 substrate peptide, single letter sequence P7-P′1 (GKDVSRRL; listed as Homo sapiens)', 2316.12),
  ('SEQ ID NO: 83: hK2 substrate peptide, single letter sequence P7-P′1 (GPLILSRL; listed as Homo sapiens)', 118.21),
  ('SEQ ID NO: 66: hK2 substrate peptide, single letter sequence P7-P′1 (GHEQKRRL; listed as Homo sapiens)', 5966.31),
  ('SEQ ID NO: 69: hK2 substrate peptide, single letter sequence P7-P′1 (GPAHQRRL; listed as Homo sapiens)', 4017.81);

Batch request: hK2 Hydrolysis Rate per item, same order as input.
1. SEQ ID NO: 73: hK2 substrate peptide, single letter sequence P7-P′1 (GSQNQRRL; listed as Homo sapiens)
2. SEQ ID NO: 92: hK2 substrate peptide, single letter sequence P7-P′1 (GSQNQVHL; listed as Homo sapiens)
3. SEQ ID NO: 89: hK2 substrate peptide, single letter sequence P7-P′1 (GHEQKGHL; listed as Homo sapiens)
4. SEQ ID NO: 68: hK2 substrate peptide, single letter sequence P7-P′1 (GGGKAHRL; listed as Homo sapiens)
5. SEQ ID NO: 82: hK2 substrate peptide, single letter sequence P7-P′1 (GSQNQVRL; listed as Homo sapiens)
6. SEQ ID NO: 71: hK2 substrate peptide, single letter sequence P7-P′1 (GSKGHRRL; listed as Homo sapiens)
7. SEQ ID NO: 84: hK2 substrate peptide, single letter sequence P7-P′1 (GSYEERHL; listed as Homo sapiens)

1. 2100.48
2. 32.48
3. 1.30
4. 4100.94
5. 193.55
6. 2649.96
7. 42.87
